Data credit: patent US9453026B2

pIC50: recorded values
Target: ACC2 (Homo sapiens, UniProt O00763)
Sequence (O00763 whole entry, species assumed): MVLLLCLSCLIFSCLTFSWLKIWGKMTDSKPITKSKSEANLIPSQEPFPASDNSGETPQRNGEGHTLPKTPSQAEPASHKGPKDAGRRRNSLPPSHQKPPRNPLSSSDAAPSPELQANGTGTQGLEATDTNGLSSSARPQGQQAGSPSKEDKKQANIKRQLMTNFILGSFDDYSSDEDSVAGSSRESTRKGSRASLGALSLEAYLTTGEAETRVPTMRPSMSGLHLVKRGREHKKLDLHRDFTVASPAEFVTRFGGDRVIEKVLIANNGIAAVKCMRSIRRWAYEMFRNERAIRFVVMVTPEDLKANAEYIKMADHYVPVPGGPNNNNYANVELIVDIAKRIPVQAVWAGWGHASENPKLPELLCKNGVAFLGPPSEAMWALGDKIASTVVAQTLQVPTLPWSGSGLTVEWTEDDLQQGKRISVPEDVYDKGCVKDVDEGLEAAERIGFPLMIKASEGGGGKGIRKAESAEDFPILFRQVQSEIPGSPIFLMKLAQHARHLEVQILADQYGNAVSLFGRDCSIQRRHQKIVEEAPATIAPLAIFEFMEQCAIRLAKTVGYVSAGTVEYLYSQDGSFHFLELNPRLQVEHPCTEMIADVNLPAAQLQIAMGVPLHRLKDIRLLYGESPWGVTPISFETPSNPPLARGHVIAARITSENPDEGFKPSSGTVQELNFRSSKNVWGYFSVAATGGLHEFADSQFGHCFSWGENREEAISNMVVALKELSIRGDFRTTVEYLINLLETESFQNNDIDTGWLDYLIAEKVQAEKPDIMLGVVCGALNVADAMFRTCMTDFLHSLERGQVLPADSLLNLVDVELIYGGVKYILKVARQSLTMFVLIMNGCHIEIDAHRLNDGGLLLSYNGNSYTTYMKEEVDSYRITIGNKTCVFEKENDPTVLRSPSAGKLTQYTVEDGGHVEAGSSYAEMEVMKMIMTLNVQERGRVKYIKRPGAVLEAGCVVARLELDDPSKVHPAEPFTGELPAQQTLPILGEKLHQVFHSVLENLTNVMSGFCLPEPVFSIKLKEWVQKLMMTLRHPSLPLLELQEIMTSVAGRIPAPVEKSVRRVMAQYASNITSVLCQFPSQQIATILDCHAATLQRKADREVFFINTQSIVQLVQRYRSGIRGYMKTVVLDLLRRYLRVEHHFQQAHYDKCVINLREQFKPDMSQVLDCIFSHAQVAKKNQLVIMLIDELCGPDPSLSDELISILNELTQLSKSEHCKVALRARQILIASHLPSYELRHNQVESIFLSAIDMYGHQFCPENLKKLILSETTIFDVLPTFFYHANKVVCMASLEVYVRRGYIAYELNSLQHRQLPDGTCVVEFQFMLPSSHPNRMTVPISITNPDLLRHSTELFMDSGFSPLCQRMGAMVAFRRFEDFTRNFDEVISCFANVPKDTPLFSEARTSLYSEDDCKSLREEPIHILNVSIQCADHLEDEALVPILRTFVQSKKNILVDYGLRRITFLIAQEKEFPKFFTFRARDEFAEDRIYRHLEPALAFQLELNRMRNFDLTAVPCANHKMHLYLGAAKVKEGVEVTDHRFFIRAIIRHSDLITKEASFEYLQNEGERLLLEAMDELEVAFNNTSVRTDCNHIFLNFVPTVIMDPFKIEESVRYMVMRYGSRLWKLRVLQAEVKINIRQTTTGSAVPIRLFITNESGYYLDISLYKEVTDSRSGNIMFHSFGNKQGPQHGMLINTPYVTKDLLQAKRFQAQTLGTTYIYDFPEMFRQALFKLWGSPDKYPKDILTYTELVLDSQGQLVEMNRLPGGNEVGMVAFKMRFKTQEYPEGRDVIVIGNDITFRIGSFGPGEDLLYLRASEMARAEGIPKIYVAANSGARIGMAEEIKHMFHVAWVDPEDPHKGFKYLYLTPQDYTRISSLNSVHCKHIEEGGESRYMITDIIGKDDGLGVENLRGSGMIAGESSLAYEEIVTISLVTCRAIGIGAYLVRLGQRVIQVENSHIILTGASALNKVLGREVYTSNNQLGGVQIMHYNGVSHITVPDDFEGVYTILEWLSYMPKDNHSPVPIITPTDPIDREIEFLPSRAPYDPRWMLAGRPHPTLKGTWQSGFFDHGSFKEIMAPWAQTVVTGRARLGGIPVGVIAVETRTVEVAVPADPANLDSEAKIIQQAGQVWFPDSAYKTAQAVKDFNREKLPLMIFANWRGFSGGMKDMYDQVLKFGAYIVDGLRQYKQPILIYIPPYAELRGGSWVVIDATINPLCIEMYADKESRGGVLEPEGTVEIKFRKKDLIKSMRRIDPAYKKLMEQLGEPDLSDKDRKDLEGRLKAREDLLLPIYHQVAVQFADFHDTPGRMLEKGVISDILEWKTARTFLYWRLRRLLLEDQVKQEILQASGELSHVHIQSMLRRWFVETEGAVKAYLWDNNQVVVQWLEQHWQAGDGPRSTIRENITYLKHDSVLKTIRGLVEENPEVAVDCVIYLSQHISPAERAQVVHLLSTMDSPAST
Assay: In vitro ACC2 inhibition assay (ADP-Glo)
Assay type: biochemical
Conditions: read-out: ACC2
pIC50: −log10 of the molar value.

These recorded examples may help you get a feel for the data.
| MOLECULE | MEASURED QUANTITY | RESULT |
| --- | --- | --- |
| CCCOC(=O)c1sc2c(c1C)c(=O)n(CC(=O)O)c(=O)n2CCc1ccccc1 | pIC50 | 4.70 to 5.30 |
| CCOC(=O)c1sc2c(c1C)c(=O)n(CC)c(=O)n2CCc1ccccc1 | pIC50 | < 4.30 |
| COc1ccccc1[C@H](Cn1c(=O)n(C(C)(C)C(=O)O)c(=O)c2c(C)c(-c3ncco3)sc21)OC(C)C | pIC50 | > 6.00 |
| COc1ccccc1[C@H](Cn1c(=O)n(C(C)(C)C(=O)NCCO)c(=O)c2c(C)c(-c3ncco3)sc21)OC(C)C | pIC50 | > 5.30 |
| CCOC(=O)c1sc2c(c1C)c(=O)n(C(C)(C)C(=O)O)c(=O)n2CC(O)c1ccccc1 (stereo in doubt) | pIC50 | > 6.00 |
| CCOC(=O)c1sc2c(c1C)c(=O)n(C(C)(C)C(=O)O)c(=O)n2C[C@H](OC(C)CC)c1ccccc1 (stereo in doubt) | pIC50 | > 6.00 |
| CCCn1c(=O)c2c(C)c(C(=O)OCC)sc2n(CCc2ccccc2)c1=O | pIC50 | < 4.30 |
| CCOC(=O)c1sc2c(c1C)c(=O)n(CCO)c(=O)n2CC | pIC50 | < 4.30 |
| CCOC(=O)c1cc2c(=O)n(CC(=O)O)c(=O)n(CCc3ccccc3)c2s1 | pIC50 | 4.70 to 5.30 |
| Cc1c(-c2ncco2)sc2c1c(=O)n(C(C)(C)C(=O)O)c(=O)n2C[C@H](OC(C)C)c1ccccc1 | pIC50 | > 6.00 |

Shift focus to the following entry.
Which pIC50 value belongs to `Cc1c(-c2ncco2)sc2c1c(=O)n(C(C)(C)C(=O)O)c(=O)n2C[C@@H](OC(C)C)c1ccccc1` ?
4.70 to 5.30

* * *

Molecular target: ACC2 (Homo sapiens)
Assay: In vitro ACC2 inhibition assay (ADP-Glo)
Format: biochemical
Conditions: read-out: ACC2
pIC50: −log10 of the molar value.
MEASURED QUANTITY: pIC50

These recorded examples may help you get a feel for the data.
| SAMPLE SMILES | pIC50 |
| --- | --- |
| Cc1c(-c2ncco2)sc2c1c(=O)n(C(C)(C)C(=O)O)c(=O)n2C[C@H](Oc1ccc(-n2ccnc2)cc1)c1ccccc1 | > 7.00 |
| CCOC(=O)c1sc2c(c1C)c(=O)n(CC(=O)O)c(=O)n2CCc1ccccc1 | > 5.30 |
| CCOC(=O)c1sc2c(c1C)c(=O)n(C(C)(C)C(=O)O)c(=O)n2C[C@@H](OCC(C)C)c1ccccc1 | 4.70 to 5.30 |
| Cc1c(C(N)=O)sc2c1c(=O)n(CC(=O)O)c(=O)n2CCc1ccccc1 | < 4.30 |
| CCc1ccccc1[C@H](Cn1c(=O)n(C(C)(C)C(=O)O)c(=O)c2c(C)c(-c3ncco3)sc21)OC(C)C | > 7.00 |

Give recorded pIC50 with ACC2 (Homo sapiens) for the following compound: `CCOc1ccccc1[C@H](Cn1c(=O)n(C(C)(C)C(=O)O)c(=O)c2c(C)c(-c3ncco3)sc21)OCCO`
> 7.00

Give recorded pIC50 with ACC2 (Homo sapiens) for the following compound: `CCOC(=O)c1sc2c(c1C)c(=O)n(CCO)c(=O)n2CCc1cc(F)cc(F)c1`
< 4.30

Give recorded pIC50 with ACC2 (Homo sapiens) for the following compound: `CCOC(=O)c1sc2c(c1C)c(=O)n(C(C)(C)C(=O)O)c(=O)n2C[C@@H](OC(C)C)c1ccc(I)cc1`
4.30 to 4.70

* * *

Target: ACC1 (Homo sapiens)
Experiment: In vitro ACC1 inhibition assay (ADP-Glo)
Type: biochemical
Conditions: read-out: ACC1
IC50: recorded values

| COMPOUND | MEASURED QUANTITY | RESULT |
| --- | --- | --- |
| CCOC(=O)c1sc2c(c1C)c(=O)n(C(C)(C)C(=O)O)c(=O)n2C[C@H](OCC(C)C)c1ccccc1 [I-123] | IC50 | < 100 nM |
| COc1ccccc1[C@H](Cn1c(=O)n(CC(N)=O)c(=O)c2c(C)c(-c3ncco3)sc21)OC1CCOCC1 [I-288] | IC50 | < 100 nM |
| CCOC(=O)c1sc2c(c1C)c(=O)n(CCC(=O)O)c(=O)n2CCc1ccccc1 [I-46] | IC50 | < 5000 nM |
| CCOc1ccccc1CCn1c(=O)n(C(C)(C)C(=O)O)c(=O)c2c(C)c(-c3ncco3)sc21 [I-135] | IC50 | < 100 nM |
| CCOC(=O)c1sc2c(c1C)c(=O)n(CC(N)=O)c(=O)n2CCc1ccccc1 [I-14] | IC50 | < 5000 nM |

Which IC50 value belongs to CCOC(=O)c1sc2c(c1C)c(=O)n(CC(=O)O)c(=O)n2CCc1ccccc1Cl [I-31] ?
< 5000 nM

Which IC50 value belongs to COc1ccccc1[C@H](Cn1c(=O)n(C(C)(C)C(=O)O)c(=O)c2c(C)c(-c3ncco3)sc21)OC[C@@H](C)O [I-258] ?
< 100 nM

Which IC50 value belongs to Cc1c(-c2ncco2)sc2c1c(=O)n(C(C)(C)C(=O)O)c(=O)n2C[C@H](OC1CCC(=O)CC1)c1ccccc1 [I-145] ?
< 100 nM

* * *

Target: ACC2 (Homo sapiens)
Assay: In vitro ACC2 inhibition assay (ADP-Glo)
Assay type: biochemical
Conditions: read-out: ACC2
pIC50: −log10 of the molar value.
pIC50: recorded values

These recorded examples may help you get a feel for the data.
| COMPOUND | RESULT |
| --- | --- |
| Cc1c(-c2ncco2)sc2c1c(=O)n(C(C)(C)C(=O)O)c(=O)n2C[C@H](OC[C@@H](C)O)c1ccccc1 [I-179] | > 7.00 |
| Cc1c(-c2ncco2)sc2c1c(=O)n(C(C)(C)C(=O)O)c(=O)n2C[C@H](OC1CCC(F)(F)CC1)c1ccccc1 [I-155] | > 6.00 |
| CCOC(=O)c1sc2c(c1C)c(=O)n(C(C)(C)C(=O)O)c(=O)n2C[C@H](OC(C)(C)C)c1ccccc1 [I-127] | 4.30 to 4.70 |

Shift focus to the following entry.
Which pIC50 value belongs to Cc1c(-c2ncco2)sc2c1c(=O)n(C(C)(C)C(=O)O)c(=O)n2CC(Oc1ccccc1)c1ccccc1 (stereo in doubt) [I-143] ?
> 6.00

* * *

Biological target: ACC1 (Homo sapiens)
Assay: In vitro ACC1 inhibition assay (ADP-Glo)
Format: biochemical
Settings: read-out: ACC1
MEASURED QUANTITY: IC50

These recorded examples may help you get a feel for the data.
| SAMPLE SMILES | IC50 |
| --- | --- |
| CCOC(=O)c1sc2c(c1C)c(=O)n(Cc1nnn[nH]1)c(=O)n2CCc1ccccc1 | < 5000 nM |
| COc1ccccc1[C@H](Cn1c(=O)n(C(C)(C)C(=O)O)c(=O)c2c(C)c(-c3ncco3)sc21)OCCO | < 100 nM |
| CCOC(=O)c1sc2c(c1C)c(=O)n(C(C)(C)C(=O)O)c(=O)n2CCc1ccccc1OC | < 1000 nM |

Which IC50 value belongs to `CCOC(=O)c1sc2c(c1C)c(=O)n(C(C)(C)C(=O)O)c(=O)n2C[C@H](OC(C)C)c1ccccc1` ?
< 100 nM

* * *

Biological target: ACC1 (Homo sapiens, UniProt Q13085)
Test: In vitro ACC1 inhibition assay (ADP-Glo)
Format: biochemical
Details: read-out: ACC1
MEASURED QUANTITY: IC50

| SAMPLE SMILES | IC50 |
| --- | --- |
| COc1ccccc1[C@H](Cn1c(=O)n(C(C)(C)C(=O)N2CCCC2)c(=O)c2c(C)c(-c3ncco3)sc21)OC(C)C | < 100 nM |
| Cc1ccccc1[C@H](Cn1c(=O)n(C(C)(C)C(=O)O)c(=O)c2c(C)c(-c3ncco3)sc21)OC1CCOCC1 | < 100 nM |
| Cc1c(-c2ncco2)sc2c1c(=O)n(C(C)(C)C(=O)O)c(=O)n2C[C@H](OC1CCOCC1)c1ccccc1OC(C)C | < 100 nM |
| CCOC(=O)c1sc2c(c1C)c(=O)n(CCO)c(=O)n2CCc1ccccc1 | < 5000 nM |
| COc1ccccc1[C@H](Cn1c(=O)n(C(C)(C)C(=O)O)c(=O)c2c(C)c(-c3ncco3)sc21)O[C@H]1CC[C@@H](O)CC1 | < 100 nM |
| CCOC(=O)c1sc2c(c1C)c(=O)n(C(C)(C)C(=O)O)c(=O)n2CCc1ccccc1CC | < 100 nM |

Shift focus to the following entry.
Which IC50 value belongs to `CCOC(=O)c1sc2c(c1C)c(=O)n(CC(=O)O)c(=O)n2CCc1ccccc1` ?
< 5000 nM
